Values from patent US12281122B1

- System: SKBR3 (PI3Kα-Wild Type) cell line
- test_summary: HTRF phospho-AKT(S473) cell assay in SKBR3 cells
- Type: cell-based, human
- experimental_setup: Homo sapiens, SK-BR-3; HTRF phospho-AKT(S473), SKBR3 (PI3Kα-Wild Type) cells, 2 hours compound incubation, PDGF-BB stimulated
pIC50: −log10 of the molar value.
endpoint_name: pIC50

INPUT: Annotate the compound Cc1cc([C@@H](C)Nc2ccc(Cl)nc2C(=O)NS(C)(=O)=O)c2nc(N3C[C@@H]4C[C@]4(c4cnc(C)cn4)C3)n(C)c(=O)c2c1 (relative stereo) with its measured pIC50.
OUTPUT: ≤ 5.30

INPUT: Respond only with pIC50 recorded for Cc1cc([C@@H](C)Nc2ccc(Cl)nc2C(=O)NS(C)(=O)=O)c2nc(-c3ccc4c(c3)C(=O)N(C)CC4)n(C)c(=O)c2c1
OUTPUT: 5.30 to 6.00

INPUT: Provide pIC50 value for the following compound: Cc1cc([C@@H](C)Nc2ccc(Cl)nc2C(=O)NS(C)(=O)=O)c2nc(N3C[C@@H]4[C@H](C3)[C@H]4c3ccnn3C3CC3)n(C)c(=O)c2c1
OUTPUT: 5.30 to 6.00

INPUT: Identify measured pIC50 corresponding to Cc1cc([C@@H](C)Nc2ccc(Cl)nc2C(=O)NS(C)(=O)=O)c2nc(N3CCC(c4cn(C(C)C)nn4)CC3)n(C)c(=O)c2c1
OUTPUT: 5.30 to 6.00

INPUT: State, in one line, measured pIC50 of Cc1cnc(O[C@@H]2CCN(c3nc4c([C@@H](C)Nc5ccc(Cl)nc5C(=O)NS(C)(=O)=O)cc(C)cc4c(=O)n3C)C2)nc1
OUTPUT: 5.30 to 6.00

INPUT: Quickly give me recorded pIC50 for Cc1cnc([C@@H]2CCCN(c3nc4c([C@@H](C)Nc5ccc(Cl)nc5C(=O)NS(C)(=O)=O)cc(C)cc4c(=O)n3C)C2)nc1 (relative stereo)
OUTPUT: ≤ 5.30

* * *

- Test system: SKBR3 (PI3Kα-Wild Type) cell line
- test_summary: HTRF phospho-AKT(S473) cell assay in SKBR3 cells
- Format: cell-based, human
- experimental_setup: Homo sapiens, SK-BR-3; SKBR3 (PI3Kα-Wild Type) cells, HTRF phospho-AKT(S473), 2 hours compound incubation, PDGF-BB stimulated
pIC50: −log10 of the molar value.
Hi there, I'd appreciate the recorded pIC50 for every entry that follows.

INPUT: Param request: pIC50 | system SKBR3 (PI3Kα-Wild Type) cell line | item Cc1cc([C@@H](C)Nc2ccc(Cl)nc2C(=O)NS(C)(=O)=O)c2nc(N3CCC[C@H](c4cn[nH]c4)C3)n(C)c(=O)c2c1 (mixture of isomers)
OUTPUT: 5.30 to 6.00

INPUT: Report the value of pIC50 obtained on SKBR3 (PI3Kα-Wild Type) cell line for CC(=O)N1CCN(c2ccc(-c3nc4c([C@@H](C)Nc5ccc(Cl)nc5C(=O)NS(C)(=O)=O)cc(C)cc4c(=O)n3C)cn2)CC1 .
OUTPUT: 5.30 to 6.00

INPUT: Enter pIC50 (test system SKBR3 (PI3Kα-Wild Type) cell line) for Cc1cc([C@@H](C)Nc2ccc(Cl)nc2C(=O)NS(C)(=O)=O)c2nc(-c3cnc(C)nc3)n(C)c(=O)c2c1
OUTPUT: 5.30 to 6.00

INPUT: Give pIC50 for Cc1cc([C@@H](C)Nc2ccc(Cl)nc2C(=O)NS(C)(=O)=O)c2nc(N3CC[C@@H](Oc4cnn(C)c4)C3)n(C)c(=O)c2c1 tested on SKBR3 (PI3Kα-Wild Type) cell line.
OUTPUT: 5.30 to 6.00

INPUT: State measured pIC50 of the compound Cc1cc([C@@H](C)Nc2ccc(Cl)nc2C(=O)NS(C)(=O)=O)c2nc(-c3ccc(-c4cnn(C)c4)nc3)n(C)c(=O)c2c1 with SKBR3 (PI3Kα-Wild Type) cell line.
OUTPUT: 5.30 to 6.00

INPUT: Send back SKBR3 (PI3Kα-Wild Type) cell line pIC50 of Cc1cc([C@@H](C)Nc2ccc(Cl)nc2C(=O)NS(C)(=O)=O)c2nc(N3CCC[C@@H](Oc4cnccn4)C3)n(C)c(=O)c2c1 only.
OUTPUT: ≤ 5.30

INPUT: Please look at Cc1cc([C@@H](C)Nc2ccc(Cl)nc2C(=O)NS(C)(=O)=O)c2nc(N3CCc4c(cnn4C4COC4)C3)n(C)c(=O)c2c1 and tell me its recorded pIC50 on SKBR3 (PI3Kα-Wild Type) cell line.
OUTPUT: 5.30 to 6.00

INPUT: // output pIC50; input C[C@@H](Nc1ccc(Cl)nc1C(=O)NS(C)(=O)=O)c1cccc2c(=O)n(C)c(N3Cc4cnn(C)c4C3)nc12 ; system SKBR3 (PI3Kα-Wild Type) cell line
OUTPUT: 5.30 to 6.00

INPUT: Fill: pIC50 (SKBR3 (PI3Kα-Wild Type) cell line) for this compound Cc1cc([C@@H](C)Nc2ccc(Cl)nc2C(=O)NS(C)(=O)=O)c2nc(N3C[C@@H]4[C@H](C3)[C@H]4c3cncc(C)n3)n(C)c(=O)c2c1
OUTPUT: 5.30 to 6.00

INPUT: Find the measured pIC50 of Cc1cc([C@@H](C)Nc2ccc(Cl)nc2C(=O)NS(C)(=O)=O)c2nc(N3Cc4cn(-c5ccc(C)nc5)nc4C3)n(C)c(=O)c2c1 with SKBR3 (PI3Kα-Wild Type) cell line as test system.
OUTPUT: 5.30 to 6.00

INPUT: Give reported pIC50 for Cc1cc([C@@H](C)Nc2ccc(Cl)nc2C(=O)NS(C)(=O)=O)c2nc(N3CCC(Nc4cnn(C)c4)CC3)n(C)c(=O)c2c1 (SKBR3 (PI3Kα-Wild Type) cell line)
OUTPUT: 5.30 to 6.00

INPUT: Lab note: SKBR3 (PI3Kα-Wild Type) cell line assay, enter pIC50 for Cc1cc([C@@H](C)Nc2ccc(Cl)nc2C(=O)NS(C)(=O)=O)c2nc(N3CCc4nn(CC(F)(F)F)cc4C3)n(C)c(=O)c2c1 here
OUTPUT: 5.30 to 6.00

* * *

- System: T47D (PI3Kα-H1047R) cell line
- test_summary: HTRF phospho-AKT(S473) cell assay in T47D cells
- Type: cell-based, human
- experimental_setup: Homo sapiens; HTRF phospho-AKT(S473), T47D (PI3Kα-H1047R) cells, 2 hours compound incubation
pIC50: −log10 of the molar value.
For each record, write down the corresponding pIC50.

INPUT: Give recorded pIC50. CC(=O)N1CCN(c2ccc(-c3nc4c([C@@H](C)Nc5ccc(Cl)nc5C(=O)NS(C)(=O)=O)cc(C)cc4c(=O)n3C)cc2F)CC1 [Compound 778]
OUTPUT: > 6.60

INPUT: Give recorded pIC50. Cc1cc([C@@H](C)Nc2ccc(Cl)nc2C(=O)NS(C)(=O)=O)c2nc(N3C[C@@H]4[C@H](C3)[C@H]4c3cc4ccccn4n3)n(C)c(=O)c2c1 [Compound 473]
OUTPUT: 6.30 to 6.60

INPUT: Please report pIC50 for the following molecule: Cc1cc([C@@H](C)Nc2ccc(Cl)nc2C(=O)NS(C)(=O)=O)c2nc(C3CCN(c4ncc(C#N)cc4C)CC3)n(C)c(=O)c2c1 [Compound 837]
OUTPUT: 6.30 to 6.60

INPUT: Specify reported pIC50 for the molecule shown: Cc1cc([C@@H](C)Nc2ccc(Cl)nc2C(=O)NS(C)(=O)=O)c2nc(N3CCC(c4n[nH]cc4Cl)CC3)n(C)c(=O)c2c1 [Compound 717]
OUTPUT: 6.30 to 6.60

INPUT: Please give measured pIC50 of the following entry: Cc1cc([C@@H](C)Nc2ccc(Cl)nc2C(=O)NS(C)(=O)=O)c2nc(N3CCC(c4cn(C)nn4)CC3)n(C)c(=O)c2c1 [Compound 480]
OUTPUT: > 6.60

INPUT: Return the recorded pIC50 value; entry: C[C@@H](Nc1ccc(Cl)nc1C(=O)NS(C)(=O)=O)c1cc(Cl)cc2c(=O)n(C)c(N3C[C@@H]4[C@H](C3)[C@H]4c3ccn(C)n3)nc12 [Compound 451]
OUTPUT: > 6.60

INPUT: Check the records and state pIC50 for Cc1cc([C@@H](C)Nc2ccc(Cl)nc2C(=O)NS(C)(=O)=O)c2nc(-c3ccc4c(cnn4CC(F)(F)F)c3)n(C)c(=O)c2c1 [Compound 783]
OUTPUT: > 6.60

INPUT: Please report pIC50 for the following molecule: CCn1c(N2Cc3cn(CC(F)(F)F)nc3C2)nc2c([C@@H](C)Nc3ccc(Cl)nc3C(=O)NS(C)(=O)=O)cc(C)cc2c1=O [Compound 732]
OUTPUT: > 6.60

INPUT: Note pIC50 for the molecule shown: Cc1cc([C@@H](C)Nc2ccc(Cl)nc2C(=O)NS(C)(=O)=O)c2nc(N3CCC(c4ccc(F)cn4)C3)n(C)c(=O)c2c1 (stereo partly drawn) [Compound 679]
OUTPUT: 6.30 to 6.60

INPUT: Tell me its pIC50 given Cc1cc([C@@H](C)Nc2ccc(Cl)nc2C(=O)NS(C)(=O)=O)c2nc(N3C[C@@H]4[C@H](C3)[C@H]4c3ccnc(N(C)C)c3)n(C)c(=O)c2c1 [Compound 745] as the entry.
OUTPUT: 6.30 to 6.60

INPUT: Using the record for [2H]C([2H])([2H])n1ccc(C2CCN(c3nc4c([C@@H](C)Nc5ccc(Cl)nc5C(=O)NS(C)(=O)=O)cc(C)cc4c(=O)n3C)CC2)n1 [Compound 746] , state its measured pIC50.
OUTPUT: > 6.60

INPUT: Answer with reported pIC50 of Cc1cc([C@@H](C)Nc2ccc(Cl)nc2C(=O)NS(C)(=O)=O)c2nc(N3CC[C@H](Nc4ncccn4)C3)n(C)c(=O)c2c1 [Compound 540]
OUTPUT: 6.30 to 6.60
